The values you see were collected from patent US8785460B2.

Recorded melting point values for a group of compounds are listed next.

Here are 3 compounds together with their reported answers.
Output measured melting point for this item: CCN(CC)c1cccc2nc3n(c12)CCCN(C)C3c1ccc(Cl)cc1Cl (stereo not shown)
132 to 133 °C

Using known records, supply melting point for CCN(CC)c1cccc2nc3n(c12)CCCN3c1nnc(Cl)cc1C
193 to 195 °C

Let me know recorded melting point for CCC(OC1CC1)c1ccc(Cl)c2nc3n(c12)CCCN3c1ccc(Cl)cc1Cl (stereo not shown) , thanks.
147 to 149 °C

Next up:
State its melting point: CCC(OC(C)=O)c1ccc(Cl)c2nc3n(c12)CCCCN3c1ncc(Cl)cc1Cl (stereo not shown)
158 to 160 °C

###

# melting point listing for each entry below

Previously resolved entries follow.
Item CCC(CC)c1ccc(Cl)c2nc3n(c12)CCCCN3c1ncc(Cl)cc1Cl : provide melting point
175 to 176 °C

Tell me melting point reported for CCC(NC(=O)OC)c1ccc(Cl)c2nc3n(c12)CCCN3c1ccc(Cl)cc1Cl (stereo not shown)
201 to 203 °C

Return reported melting point. Input molecule: CCC(O)c1ccc(Cl)c2nc3n(c12)CCCN3c1ccc(Cl)cc1Cl (single isomer, unassigned; (+)) [Example 439]
233 to 235 °C

Answer with reported melting point of CC(C)(O)c1ccc(Cl)c2nc3n(c12)CCCN3c1ccc(Cl)cc1Cl
216 to 218 °C

Give the value of melting point reported for the following: CCN(CC)c1cccc2nc3n(c12)CCN(C)C3c1ccc(Cl)cc1Cl (stereo not shown)
186 to 187 °C

---
Provide only the value of recorded melting point for CCOc1nc(C)c(N2CCCn3c2nc2c(Cl)ccc(C(OC(F)F)C(F)(F)F)c23)c(C)n1 (stereo not shown)
218 to 220 °C

Answer with the recorded melting point of CCC(OC(C)=O)c1ccc(Cl)c2nc3n(c12)CCCN3c1ccc(N(C)C)nc1C (stereo not shown) only.
165 to 166 °C

Give melting point for the following molecule: CCOC(c1ccc(Cl)c2nc3n(c12)CCCN3c1ccc(Cl)cc1Cl)C1CC1 (stereo not shown)
138 to 140 °C

Answer with reported melting point of CCC(CC)c1ccc(Cl)c2nc3n(c12)CCN3c1ccc(Cl)cc1C(N)=O
> 300 °C

Specify measured melting point for CCC(CC)(OC)c1ccc(Cl)c2nc3n(c12)CCCN3c1ccc(Cl)cc1Cl .
124 to 125 °C

Input O=C(OC(c1ccc(Cl)c2nc3n(c12)CCCN3c1ccc(Cl)cc1Cl)C1CC1)C1CC1 (stereo not shown) , output reported melting point.
168 to 170 °C

Note melting point for the molecule shown: OC1CN(Cc2cccc3nc4n(c23)CCCN4c2ccc(Cl)cc2Cl)C1
240 to 241 °C

State its melting point: CC(=O)OC(c1ccc(Cl)c2nc3n(c12)CCCN3c1ccc(Cl)cc1Cl)C(F)(F)F (stereo not shown)
197 to 199 °C

Identify measured melting point associated with CCCC(OC)c1ccc(Cl)c2nc3n(c12)CCCN3c1c(C)cc(Cl)cc1Cl (stereo not shown)
151 to 152 °C

State its melting point: CCN(CC)c1cccc2nc3n(c12)CC(O)CN3c1ccc(Cl)cc1Cl (stereo not shown)
239 to 242 °C

Look up melting point of CCC(COC)c1ccc(Cl)c2nc3n(c12)CCCN3c1ccc(Cl)cc1Cl (stereo not shown) and report it.
130 to 131 °C

Item CCC(CC)c1ccc(Cl)c2nc3n(c12)CCCCN3c1ccc(C(F)(F)F)cc1Br : provide melting point
158 to 160 °C

Given CCNC(=O)NC(CC)c1ccc(Cl)c2nc3n(c12)CCCN3c1ccc(Cl)cc1Cl (stereo not shown) , respond with its melting point.
250 to 252 °C

Recall and state the measured melting point for CCC(CC)c1ccc(Cl)c2nc3n(c12)CCCCN3c1cnc(OC)cc1C .
112 to 114 °C

Supply recorded melting point for CCOC(CC)c1ccc(Cl)c2nc3n(c12)CCCN3c1ccc(Cl)cc1Cl (stereo not shown) here.
108 to 110 °C

Please give measured melting point of the following entry: CCNC(CC)c1ccc(Cl)c2nc3n(c12)CCCN3c1ccc(Cl)cc1Cl (stereo not shown)
124 to 127 °C

Look up and report measured melting point for this entry: CCOc1ccc(N2CCCn3c2nc2c(Cl)ccc(C(OC(F)F)C(F)(F)F)c23)c(C)c1 (stereo not shown)
179 to 182 °C

Tell us which melting point value is on record for CCC(CC)c1ccc(Cl)c2nc3n(c12)CCCCN3c1cc(C)cc2c1ncn2C
259 to 260 °C

Return the recorded melting point value; entry: CCC(CC)c1ccc(Cl)c2nc3n(c12)CCCCN3c1cnc(Br)c(C)c1
137 to 140 °C

Let me know recorded melting point for FC(F)(F)COC(c1ccc(Cl)c2nc3n(c12)CCCN3c1ccc(Cl)cc1Cl)C1CC1 (stereo not shown) , thanks.
143 to 145 °C

Recall and state the measured melting point for CCC(CC)c1ccc(Cl)c2nc3n(c12)CCCCN3c1ncc(C#N)cc1C .
213 °C

Identify measured melting point corresponding to Cc1nc(C2CC2)nc(C)c1N1CCCn2c1nc1c(Cl)ccc(C(OC(F)F)C(F)(F)F)c12 (stereo not shown)
191 to 193 °C

Write down melting point measured for item Cc1cc(OC(C)C)ccc1N1CCCn2c1nc1c(Cl)ccc(C(OC(F)F)C(F)(F)F)c12 (stereo not shown)
198 to 204 °C

Give the measured melting point for CCC(CC)c1ccc(Cl)c2nc3n(c12)CCCCN3c1ccc(C)cc1C#N
176 to 180 °C
